# Protocol Description: RP, Waters CORTECS T3, 100 × 2.1 mm, 2.7 µm, 0.3 mL/min, estimated dead time 0.73 min; A: water + 0.1% formic acid, pH 3; B: methanol + 0.1% formic acid, pH 3; gradient (min/%B) 0/0 5/0 25/100 30/100 30.1/0 35/0
# Details: stereoisomer not certain
Property Label: LC retention time (min)

Past entries and their recorded results:
[
  {
    "Compound": "N[C@@H](Cc1cc(I)c(Oc2ccc(O)cc2)c(I)c1)C(=O)O [3,5-DIIODO-L-THYRONINE]",
    "LC retention time (min)": 16.1
  },
  {
    "Compound": "Nc1ccn(C2OC(CO)C3OP(=O)([O-])OC32)c(=O)n1 (stereo not given) [CYTIDINE 2',3'-CYCLIC MONOPHOSPHATE]",
    "LC retention time (min)": 0.89
  },
  {
    "Compound": "Nc1nc2nccnc2c(=O)[nH]1 [PTERIN]",
    "LC retention time (min)": 3.11
  },
  {
    "Compound": "Nc1nc2ncc(CNc3ccc(C(=O)NC(CCC(=O)O)C(=O)O)cc3)nc2c(=O)[nH]1 (stereo not given) [FOLIC ACID]",
    "LC retention time (min)": 11.4
  }
]

(1) CC(C)(CO)C(O)C(=O)NCCC(=O)O [D-PANTOTHENIC ACID]
(2) CC(=O)N[C@@H](Cc1ccccc1)C(=O)O [N-ACETYL-L-PHENYLALANINE]
LC retention time comparison. Which is larger, 1 or 2 ? Give the label under which the chosen entry appears.
2
(2: 12.8 min, 1: 8.6 min)

(a) CC(=O)N[C@@H](CC(C)C)C(=O)O [N-ACETYL-L-LEUCINE]
(b) O=c1[nH]c(=O)c2[nH]c(=O)[nH]c2[nH]1 [URATE]
Looking at a and b , which one comes out lower in LC retention time terms? Give the label under which the chosen entry appears.
b
(b: 0.93 min, a: 12.2 min)
